Assignment: determine reported IC50 for the given molecules.
experimentalTarget: RORγt (Mus musculus, UniProt P51450)
Construct: expressed in transfected cells; the other entry of the earlier key: GAL4 (P04386, Regulatory protein GAL4)
Sequence (P51450 with tags, fused parts or gaps): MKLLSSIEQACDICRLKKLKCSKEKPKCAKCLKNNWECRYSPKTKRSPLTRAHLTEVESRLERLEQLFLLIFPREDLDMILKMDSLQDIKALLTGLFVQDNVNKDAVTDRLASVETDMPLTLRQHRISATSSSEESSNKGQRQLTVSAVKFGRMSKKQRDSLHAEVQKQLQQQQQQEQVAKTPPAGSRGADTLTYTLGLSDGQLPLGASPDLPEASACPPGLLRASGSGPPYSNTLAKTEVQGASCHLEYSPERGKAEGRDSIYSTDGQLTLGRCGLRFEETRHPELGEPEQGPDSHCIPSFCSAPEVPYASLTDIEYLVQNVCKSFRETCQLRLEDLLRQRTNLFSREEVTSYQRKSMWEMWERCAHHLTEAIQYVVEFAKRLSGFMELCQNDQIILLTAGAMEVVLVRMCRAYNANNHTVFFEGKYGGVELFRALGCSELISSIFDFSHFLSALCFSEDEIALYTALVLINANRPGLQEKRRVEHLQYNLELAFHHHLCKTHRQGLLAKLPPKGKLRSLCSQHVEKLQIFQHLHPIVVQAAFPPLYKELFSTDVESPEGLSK
procedureSummary: RORγt S2 cell reporter assay (Gal4-RORγt fusion, UAS-luciferase)
Type: cell-based
settings: Table 1; Drosophila S2 cells, luciferase reporter; read-out: IC50

-- ask Give its IC50 value. Item: COc1cc(O)c(C(CC(=O)N2CC(C)CC(C)C2)c2ccc(C(C)=O)cc2)c(OC)c1 (centres unmarked) [Compound 100]
-- reply < 1000 nM

-- ask I'd like to know its IC50. The molecule in question is COc1cc(O)c(C(CC(=O)N2CC(C)CC(C)C2)c2ccc(C(N)=O)cc2)c(OC)c1 (centres unmarked) [Compound 111]
-- reply 1000 to 10000 nM

-- ask Which IC50 is reported for this molecule? COc1c(C(CC(=O)N2CC(C)CC(C)C2)c2ccc3c(c2)OCO3)c(O)cc2occc12 (centres unmarked) [Compound 139]
-- reply 1000 to 10000 nM

-- ask Item under review: COc1cc(O)c(C(CC(=O)N2CCCC(C)C2)c2cccs2)c(OC)c1 (centres unmarked) [Compound 70] . Reported IC50?
-- reply 1000 to 10000 nM

-- ask IC50 lookup needed for COc1cc(O)c(C(CC(=O)N2CC(C)CC(C)C2)c2ccc(C(=O)NC3CC3)cc2)c(OC)c1 (centres unmarked) [Compound 95] , thanks.
-- reply 1000 to 10000 nM

Values were extracted from patent US9765063B2.
